Test system: OVCAR-4
Experiment: NCI tumour cell line growth inhibition, 48 h
Activity calls are given as the source filed them. No stated cut-off is given here; in the data, active = GI50 up to about 1.1 µM and inactive = higher.
Below is a list of entries, each paired with its recorded GI50 value.

Some entries whose results are on file:
compound=O=C1CNc2cc(N3CCN(c4cccc(C(F)(F)F)c4)CC3)ccc2N1 assay_result="21.4 µM (inactive)"
compound=CNc1nc2c(C)ccc3nc(N(C)C)nc-3c2n1C assay_result="> 10 µM (inactive)"
compound=CCOC(=O)/C=C/[C@@H](CC)O[Si](C(C)C)(C(C)C)C(C)C assay_result="> 100 µM (inactive)"
compound="CCOc1ccccc1NC(=O)CC1Sc2ccccc2NC1=O (stereo unspecified)" assay_result="68.9 µM (inactive)"
compound=O=c1c2ccc3cccc4c(=O)cc(c5ccccc15)-c2c34 assay_result="> 100 µM (inactive)"

Incoming: Give GI50 for O=C(NC(Nc1ccc(F)cc1)(C(F)(F)F)C(F)(F)F)C(C(F)(F)F)C(F)(F)F
Outgoing: 5.52 µM (inactive)

Incoming: Give GI50 for CCN(CC)CCCN1CCc2c([nH]c3ccccc23)C1c1cccnc1 (stereo unspecified)
Outgoing: 96.8 µM (inactive)

Incoming: Give GI50 for COc1cc(-c2cc(=O)c3c(O)c(OC)c(OC)c(OC)c3o2)cc(OC)c1OC
Outgoing: > 100 µM (inactive)

Incoming: Give GI50 for CCOC(=O)/C=C(\C(=O)OCC)n1ccc(=O)[nH]c1=O
Outgoing: 19.1 µM (inactive)

Incoming: Give GI50 for CC1(C)OC[C@@H](O)[C@H](C#N)CO1
Outgoing: > 100 µM (inactive)

Incoming: Give GI50 for Cc1cccc(C)c1NC(=O)C1=NC(=S)NC(c2ccccc2)C1c1nc2ccccc2s1 (stereo unspecified)
Outgoing: > 100 µM (inactive)

Incoming: Give GI50 for C=C1NC(=O)C(CC(C(=O)C(=O)Nc2c(C)cccc2C(C)(C)C)C(=O)c2ccc3ccccc3c2)C(=O)N1 (stereo unspecified)
Outgoing: > 100 µM (inactive)

###

Tested on: SF-295
Experiment: NCI tumour cell line growth inhibition, 48 h
Active and inactive are the calls of the source. No stated cut-off is given here; in the data, active = GI50 up to about 1.1 µM and inactive = higher.
MEASURED_ATTRIBUTE: GI50

Some entries whose results are on file:
molecule="COc1ccc2c3c1OC1C34CCN(C)C(C2)C4=CC(I)C1(OC)OC (centres undefined)" assay_result="41.5 µM (inactive)"
molecule=CC(=O)O[C@H]1[C@H](O[C@H]2CC[C@]34C[C@]35CC[C@]3(C)[C@@H]([C@@]6(C)CC[C@@H](C(C)(C)O)O6)[C@@H](O)C[C@@]3(C)[C@@H]5C[C@H](O[C@@H]3O[C@H](CO)[C@@H](O)[C@H](O)[C@H]3O)[C@H]4C2(C)C)OC[C@@H](O)[C@@H]1O assay_result="> 100 µM (inactive)"
molecule=CCCCCCN(CCCCCC)C(=O)Cc1c2n(c3ccccc13)Cc1ccccc1-2 assay_result="56.8 µM (inactive)"
molecule=ClCCN(CC#CCCCC#CCN(CCCl)CCCl)CCCl assay_result="11.6 µM (inactive)"
molecule="O=C(CC1(O)C(=O)Nc2c(Cl)cccc21)c1ccccc1 (centres undefined)" assay_result="> 100 µM (inactive)"

Incoming: Give GI50 only, for Nc1c(C(=O)c2ccccc2)[nH]c(NCc2ccccc2)c1C(=S)Nc1ccccc1 , using SF-295 data.
Outgoing: > 100 µM (inactive)

Incoming: Give GI50 only, for CCNCCCCNCCCCNCCCCNCCCCNCC , using SF-295 data.
Outgoing: 42 µM (inactive)

Incoming: Give GI50 only, for CC1(C)OC(C(=O)Nc2cc3c4ccccc4ccc3c3ccccc23)C(C(=O)N2CCCCC2)O1 (centres undefined) , using SF-295 data.
Outgoing: 1.32 µM (inactive)

Incoming: Give GI50 only, for c1ccc2c(c1)SC(=C1Sc3ccccc3S1)S2 , using SF-295 data.
Outgoing: > 100 µM (inactive)

###

Tested on: HCT-116
Test: NCI tumour cell line growth inhibition, 48 h
Calls of active or inactive are those of the source. No stated cut-off is given here; in the data, active = GI50 up to about 1.1 µM and inactive = higher.
MEASURED_ATTRIBUTE: GI50

Some entries whose results are on file:
compound=NC(=O)c1ncn(CCN2CCN(C(=O)NCCCCCCNC(=O)N3CCN(CCn4cnc(C(N)=O)c4N)CC3)CC2)c1N target=HCT-116 assay_result="> 100 µM (inactive)"
compound="N#Cc1cc([N+](=O)[O-])ccc1NC(=O)C(=O)C(C(=O)c1ccc2ccccc2c1)C1OCc2ccccc21 (configuration not stated)" target=HCT-116 assay_result="5.01 µM (inactive)"
compound=COC(=O)[C@](NC(=O)OCc1ccccc1)([C@@H](C)Sc1ccc(C)cc1)C(F)(F)F target=HCT-116 assay_result="35.4 µM (inactive)"
compound="Cc1cccc(C)c1NC(=O)C1=NC(=S)NC(c2ccccc2)C1c1nc2ccccc2s1 (configuration not stated)" target=HCT-116 assay_result="> 100 µM (inactive)"
compound=O=c1[nH]c2ccc(O)cc2o1 target=HCT-116 assay_result="> 100 µM (inactive)"
compound="COC(=O)C(Cc1c[nH]c2ccccc12)NC(=O)C(Cc1c[nH]cn1)NC(=O)C1CCC(=O)N1C(=O)OCc1ccccc1 (configuration not stated)" target=HCT-116 assay_result="> 100 µM (inactive)"
compound="Cc1cc(Cl)ccc1NC(=O)CC1SC(Nc2ccccc2Cl)=NC1=O (configuration not stated)" target=HCT-116 assay_result="30.3 µM (inactive)"
compound="COC(=O)C1C2CC3C(OC(=O)C31)C2OC(=O)[C@](OC)(c1ccccc1)C(F)(F)F (some centres not stated)" target=HCT-116 assay_result="> 100 µM (inactive)"

Incoming: Give GI50 for N#CSCc1cccc(Nc2cc(=O)[nH]c(=O)[nH]2)c1
Outgoing: 40.6 µM (inactive)

Incoming: Give GI50 for CC(C)=CCC[C@@H](C)C1=C(Nc2ccccc2)C(=O)C(C)=C(O)C1=O
Outgoing: 1.53 µM (inactive)

Incoming: Give GI50 for COc1cccc(C2CC(C)(O)Oc3cc4c(cc32)OCO4)c1 (configuration not stated)
Outgoing: 9.44 µM (inactive)

Incoming: Give GI50 for COC(C)(C)[C@@H](O)[C@H]1C[C@H](C)[C@@]2(CC[C@]3(C)[C@@H]2CC[C@@H]2[C@@]4(C)CC[C@@H](OC(C)=O)C(C)(C)[C@@H]4C[C@@H](OC4OC(COC(C)=O)C(O)C(O)C4O)[C@]23C)O1 (some centres not stated)
Outgoing: 3.25 µM (inactive)

Incoming: Give GI50 for O=C(N/N=C(\C1=Nc2ccc(Cl)cc2NC1O)C(O)/C=C/c1ccccc1)c1ccncc1 (configuration not stated)
Outgoing: > 100 µM (inactive)

Incoming: Give GI50 for Cc1ccc2nc(CN(CCO)CCO)cc(=O)n2c1
Outgoing: > 100 µM (inactive)

Incoming: Give GI50 for Cc1cc(C)n2nc3nc(N)c(C#N)c(-c4ccccc4)c3c2n1
Outgoing: > 100 µM (inactive)

Incoming: Give GI50 for CC(C)=CCc1c2c(c3occ(-c4ccc(O)c(O)c4)c(=O)c3c1O)C=CC(C)(C)O2
Outgoing: 1.85 µM (inactive)

Incoming: Give GI50 for C=CCOC(=O)CCCCCCCCCCCCCCCOC(=O)C1=C(CCC[C@@H](C)O[Si](C)(C)C(C)(C)C)NC(=O)N2[C@H](CC3(CC/C=C\[C@H](CC)O[Si](C(C)C)(C(C)C)C(C)C)OCCO3)CC[C@H]12
Outgoing: > 100 µM (inactive)

###

System: OVCAR-3
Experiment: NCI tumour cell line growth inhibition, 48 h
Activity calls are given as the source filed them. Cut-off read from the data, not from the text of the source: active = GI50 up to about 1.1 µM and inactive = higher.
MEASURED_ATTRIBUTE: GI50

molecule=CC(=O)C(=C(c1ccccc1)c1ccccc1)c1ccccc1 assay_result="> 100 µM (inactive)"
molecule="CCOC(=O)C(Cc1cn(C(C)=O)c2ccccc12)P(=O)(OCC)OCC (stereo unspecified)" assay_result="> 100 µM (inactive)"
molecule=C(=C\c1nccs1)/c1cccc(/C=C/c2nccs2)n1 assay_result="> 50 µM (inactive)"
molecule="Cc1cccc2c1C(=O)C(C1OC(=O)c3ccccc31)C2 (stereo unspecified)" assay_result="> 100 µM (inactive)"
molecule="CC1OC(OC2C[C@](O)(C(=O)CBr)Cc3c(O)c4c(c(O)c32)C(=O)c2ccccc2C4=O)C(F)C(O)C1O (stereo partly specified)" assay_result="13.9 µM (inactive)"

Incoming: Give GI50 for CCOC(=O)N1c2c(c3ccccc3n2C(=O)OCC)C(=O)C(OC)N1C(=O)OCC (stereo unspecified)
Outgoing: 30.2 µM (inactive)

Incoming: Give GI50 for COc1cc(O)c2c(=O)c(OC)c(-c3ccc(OC)c(O)c3)oc2c1
Outgoing: 63.8 µM (inactive)

Incoming: Give GI50 for CC(C)OC(=O)c1ccc(NCC2=CC(=O)C=CC2=O)cc1Cl
Outgoing: 10.4 µM (inactive)

Incoming: Give GI50 for Cc1cccc2c1nc1n2C(=O)c2ccccc2-1
Outgoing: > 100 µM (inactive)

Incoming: Give GI50 for NNC1=NC(=O)NC(=O)C1
Outgoing: > 100 µM (inactive)

Incoming: Give GI50 for O=C(NC1C2CC3CC(C2)CC1C3)c1ccncn1 (stereo unspecified)
Outgoing: > 100 µM (inactive)
